- target system: T1, human CD73 (huCD73) protein, antigen of the Biacore assay (human, UniProt P21589 27-547, limits assumed)
- T1 construct: also called human CD73 antigen
- T1 sequence (looked up): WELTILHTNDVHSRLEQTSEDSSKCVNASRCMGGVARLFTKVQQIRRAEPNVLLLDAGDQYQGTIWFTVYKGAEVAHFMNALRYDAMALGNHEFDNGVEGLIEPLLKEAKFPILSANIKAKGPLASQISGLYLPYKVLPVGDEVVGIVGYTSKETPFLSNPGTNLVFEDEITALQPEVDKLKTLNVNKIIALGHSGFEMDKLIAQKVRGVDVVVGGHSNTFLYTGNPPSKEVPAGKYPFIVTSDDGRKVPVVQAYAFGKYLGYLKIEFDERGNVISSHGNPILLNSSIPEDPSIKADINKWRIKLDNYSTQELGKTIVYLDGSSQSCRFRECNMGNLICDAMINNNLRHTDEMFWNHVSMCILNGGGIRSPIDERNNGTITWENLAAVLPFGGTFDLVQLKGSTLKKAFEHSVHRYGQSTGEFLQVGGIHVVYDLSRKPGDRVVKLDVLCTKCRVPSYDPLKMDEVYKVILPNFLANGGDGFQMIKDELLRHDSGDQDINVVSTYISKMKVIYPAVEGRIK
- procedure text: SPR Biacore T200; antibody captured on Protein A chip, CD73 in flow; 1:1 Langmuir
Mark Satisfied only for Kd values smaller than 0.2 nM; exact matches and larger values are Not satisfied.

// known answers, use as guide
>  <binder>
Hab127.31h (antibody, V domains shown, VL3 + VH1h, HCDR2 hot-spot variant; full-length antibody) VH: EVQLVQSGAEVKKPGASVKVSCKASGYTFTAYFMNWVRQAPGQGLEWMGRIYHLNVDTFYSQKFKGRVTMTVDKSTSTVYMELSSLRSEDTAVYYCATSYVGDWGQGTTVTVSS VL: DIQMTQSPSSLSASVGDRVTITCRASQDIGDSLNWLQQKPGGALKRLIYATSSLDSGVPSRFSGSGSGTEYTLTISSLQPEDFATYYCLQYASFPWTFGGGTKVEIK

>  <answer label>
Not satisfied

$$$$
>  <binder>
Hab108.65 (antibody, V domains shown, VL6 + VH5; full-length antibody) VH: EVTLKESGPVLVKPTETLTLTCTVSGFSLKSYGIQWVRQPPGKLLEWLGVIWSGGSADYNAAFISRLTISKDTSKSQVVLTMTNMDPVDTATYYCAGQYGSVWGQGTLVTVSS VL: DIQMTQSPSSLSASVGDRVTITCRASQDIGDRLNWLQQKPGGAIKRLIYATSSLDSGVPKRFSGSGSGTEYTLTISSLQPEDFATYYCLQYAGSWTFGGGTKVEIK

>  <answer label>
Not satisfied

$$$$
>  <binder>
Hab108.15 (antibody, V domains shown, VL1 + VH5; full-length antibody) VH: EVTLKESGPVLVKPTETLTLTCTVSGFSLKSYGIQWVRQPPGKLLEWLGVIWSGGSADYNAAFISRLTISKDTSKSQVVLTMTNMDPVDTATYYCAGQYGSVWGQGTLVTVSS VL: DIQMTQSPSSLSASVGDRVTITCRASQDIGDRLNWYQQKPGKAPKRLIYATSSLDSGVPSRFSGSGSGTEFTLTISSLQPEDFATYYCLQYAGSWTFGGGTKVEIK

>  <answer label>
Not satisfied

$$$$

Q: Criterion: Kd strictly below 0.2 nM. Is it met by Hab110.25 (antibody, V domains shown, VL2 + VH5; recombined with human heavy and light constant regions) VH: EVQLVQSGAEVKKPGASVKVSCKASGYTFTSYTMHWVKQAPGQGLEWIGYINPNSFYIEYNQKFKDKATLTADTSASTAYMELSSLRSEDTAVYYCARGDYDLFYDMDNWGQGTTVTVSS VL: DIQMTQSPSSLSASVGDRVTITCRASQDIGNSLNWLQQKPGKAIKRLIYATFRLDSGVPSRFSGSRSGTEYTLTISSLQPEDFATYYCQQYASFPWTFGGGTKVEIK ?
Result: Not satisfied

Q: What about Hab110.23 (antibody, V domains shown, VL2 + VH3; recombined with human heavy and light constant regions) VH: EVQLVQSGAEVKKPGASVKVSCKASGYTFTSYTMHWVRQAPGQRLEWIGYINPNSFYIEYNQKFKDRATLTADTSASTAYMELSSLRSEDTAVYYCARGDYDLFYDMDNWGQGTTVTVSS VL: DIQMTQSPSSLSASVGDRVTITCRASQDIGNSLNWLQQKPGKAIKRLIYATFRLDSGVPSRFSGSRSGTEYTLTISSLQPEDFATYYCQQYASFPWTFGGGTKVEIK ?
Result: Satisfied

Q: What about Hab127.43 (antibody, V domains shown, VL4 + VH3; recombined with human heavy and light constant regions) VH: EVQLVQSGAEVKKPGASVKVSCKASGYTFTAYFMNWVMQAPGQGLEWIGRIYHNNGDTFYSQKFKGRATLTVDKSTSTVYMELSSLRSEDTAVYYCATSYVGDWGQGTTVTVSS VL: DIQMTQSPSSLSASVGDRVTITCRASQDIGDSLNWLQQKPGGALKRLIYATSSLDSGVPSRFSGSGSGSDYTLTISSLQPEDFATYYCLQYASFPWTFGGGTKVEIK ?
Result: Satisfied

Q: What about Hab108.25 (antibody, V domains shown, VL2 + VH5; full-length antibody) VH: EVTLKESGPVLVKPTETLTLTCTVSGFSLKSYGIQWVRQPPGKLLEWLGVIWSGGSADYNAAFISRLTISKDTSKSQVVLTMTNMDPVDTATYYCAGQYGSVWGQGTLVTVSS VL: DIQMTQSPSSLSASVGDRVTITCRASQDIGDRLNWLQQKPGKAIKRLIYATSSLDSGVPSRFSGSGSGTEYTLTISSLQPEDFATYYCLQYAGSWTFGGGTKVEIK ?
Result: Not satisfied

Q: What about Hab110.32 (antibody, V domains shown, VL3 + VH2; recombined with human heavy and light constant regions) VH: EVQLVQSGAEVKKPGASVKVSCKASGYTFTSYTMHWVRQAPGQRLEWMGYINPNSFYIEYNQKFKDRVTITADTSASTAYMELSSLRSEDTAVYYCARGDYDLFYDMDNWGQGTTVTVSS VL: DIQMTQSPSSLSASVGDRVTITCRASQDIGNSLNWLQQKPGGAIKRLIYATFRLDSGVPSRFSGSRSGTEYTLTISSLQPEDFADYYCQQYASFPWTFGGGTKVEIK ?
Result: Satisfied

Q: What about Hab127.44 (antibody, V domains shown, VL4 + VH4; recombined with human heavy and light constant regions) VH: EVQLVQSGAEVKKPGASVKVSCKASGYTFTAYFMNWVMQAPGQSLEWIGRIYHNNGDTFYSQKFKGRATLTVDKSTSTVYMELRSLRSEDTAVYYCATSYVGDWGQGTTVTVSS VL: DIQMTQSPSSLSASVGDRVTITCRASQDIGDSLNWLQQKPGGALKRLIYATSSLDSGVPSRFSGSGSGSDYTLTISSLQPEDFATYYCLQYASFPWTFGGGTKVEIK ?
Result: Satisfied

Q: What about Hab108.34 (antibody, V domains shown, VL3 + VH4; full-length antibody) VH: EVTLKQSGPGLVKPTETLTLTCTVSGFSLSSYGIQWVRQPPGKGLEWLGVIWSGGSADYNAAFISRLTISKDTSKSQVVLTMTNMDPVDTATYYCAGQYGSVWGQGTLVTVSS VL: DIQMTQSPSSLSASVGDRVTITCRASQDIGDRLNWLQQKPGGAIKRLIYATSSLDSGVPSRFSGSGSGTEYTLTISSLQPEDFATYYCLQYAGSWTFGGGTKVEIK ?
Result: Not satisfied
